- subject.of.test: UniProtKB Q14680
- Sequence (Q14680 whole entry, looked up): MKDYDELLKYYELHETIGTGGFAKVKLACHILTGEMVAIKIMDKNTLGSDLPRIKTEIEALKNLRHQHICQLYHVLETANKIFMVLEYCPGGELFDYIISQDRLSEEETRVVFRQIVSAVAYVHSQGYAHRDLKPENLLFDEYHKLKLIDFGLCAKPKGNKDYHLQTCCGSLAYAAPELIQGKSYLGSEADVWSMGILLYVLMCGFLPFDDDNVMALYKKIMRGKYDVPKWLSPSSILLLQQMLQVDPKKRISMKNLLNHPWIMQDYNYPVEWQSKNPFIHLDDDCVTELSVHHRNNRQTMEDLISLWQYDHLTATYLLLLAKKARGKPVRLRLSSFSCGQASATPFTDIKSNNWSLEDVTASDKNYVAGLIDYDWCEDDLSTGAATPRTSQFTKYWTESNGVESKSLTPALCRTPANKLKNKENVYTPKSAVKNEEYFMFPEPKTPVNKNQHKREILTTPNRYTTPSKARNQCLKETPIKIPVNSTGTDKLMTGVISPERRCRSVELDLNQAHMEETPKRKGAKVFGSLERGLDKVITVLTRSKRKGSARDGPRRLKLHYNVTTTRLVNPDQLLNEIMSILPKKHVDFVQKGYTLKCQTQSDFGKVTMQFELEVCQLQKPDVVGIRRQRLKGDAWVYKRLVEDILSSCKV
- assay.name: Kinase assay: MELK activity, phosphorylation of FITC-labeled histone H3 peptide measured by IMAP fluorescence polarization
- Assay type: biochemical
- details: read-out: IC50 (μM) (kinase assay)
property: IC50 (µM)
Field format: number, assumed µM, no unit text.

Please review the entries below; each comes with its answer.
{"columns": ["compound", "units.label", "IC50"],
 "data": [
  ["CCN(CC)C[C@H]1CC[C@H](Nc2c(C(C)=O)cnc3ccc(-c4cc(F)c(O)c(Cl)c4)cc23)CC1", "µM", 0.0056],
  ["O=C(c1cnc2ccc(-c3cc(Cl)c(O)c(Cl)c3)cc2c1NC1CCC(N2CC[C@@H](F)C2)CC1)C1CC1 (stereo partly drawn)", "µM", 0.004],
  ["COC(=O)c1ccc(-c2ccc3ncc(C(=O)C4CC4)c(N4CCC(CN(C)C)CC4)c3c2)cc1", "µM", 1.4]
]}

With those in mind, consider the next compound.
The reported value for CC(=O)c1cnc2ccc(-c3cc(Cl)c(O)c(Cl)c3)cc2c1Nc1ccc2c(c1)CCC2N(C)C (stereo not drawn) in terms of IC50 is 0.0033

====

- Tested on: HT-1197 cells
- assay.name: Cell-based assay: anti-proliferative activity, Cell Counting Kit-8, 72 hours (HT-1197, negative control without MELK expression)
- details: Homo sapiens, HT1197, 72 h, HT1197 cells (negative control, no MELK expression), 72 hours
Structures can show the parent of a compound that is named as a salt.
property: IC50 (µM)
Give the value in µM but do not write µM after it.

{"columns": ["compound", "IC50 / µM"],
 "data": [
  ["CN(C)CCc1cccc(Nc2c(C(=O)C3CC3)cnc3ccc(-c4cc(F)c(O)c(Cl)c4)cc23)c1", 10]
]}

Query CC(=O)c1cnc2ccc(-c3cc(F)c(O)c(Cl)c3)cc2c1Nc1ccc(N2CCC(N(C)C)C2)nc1 (centres unmarked) yields IC50 of 10

// IC50 lookup, compound = CC(=O)c1cnc2ccc(-c3cc(Cl)c(O)c(Cl)c3)cc2c1N[C@H]1CC[C@H](CN2CCN(C)CC2)CC1 [Example 782, hydrochloride] , result: 5.9

Memo: "O=C(c1cnc2ccc(-c3cc(Cl)c(O)c(Cl)c3)cc2c1Nc1ccc(NCCO)nc1)C1CC1" , reported IC50: 5.1

Consider "COc1cc(-c2ccc3ncc(C(=O)C4CC4)c(-c4ccc(C(=O)N5CCN(C)CC5)cc4)c3c2)cc(Cl)c1O" . Its measured IC50 is 2.1

====

- Tested on: T47D cells
- assay.name: Cell-based assay: anti-proliferative activity, Cell Counting Kit-8, 72 hours (T47D)
- details: Homo sapiens, T47D, 72 h
Structures can show the parent of a compound that is named as a salt.
Please use 1 (yes) for IC50 under 0.5 µM and 0 (no) for everything else, ties included.

Field: example entries. Status: answers known.
{"columns": ["molecule", "assigned.class"],
 "data": [
  ["COc1cc(-c2ccc3ncc(C(=O)C4CC4)c(C4=CCNCC4)c3c2)cc(Cl)c1O", "0 (no)"],
  ["COc1cc(-c2ccc3ncc(C(C)=O)c(Nc4ccc(N5CCN(C)CC5)nc4)c3c2)cc(Cl)c1O", "0 (no)"],
  ["CN(C)C1CCN(c2ccc(Nc3c(C(=O)C4CC4)cnc4ccc(-c5cc(F)c(O)c(Cl)c5)cc34)cn2)C1 (centres unmarked)", "1 (yes)"],
  ["CS(=O)(=O)c1cnc2ccc(-c3ccc(O)c(Cl)c3)cc2c1N1CCC(CN2CCCC2)CC1", "0 (no)"],
  ["CN(C)CC(=O)N1CCN(c2c(C(=O)C3CC3)cnc3ccc(-c4cc(F)c(O)c(Cl)c4)cc23)CC1", "0 (no)"]
]}

State whether 0.5 µM exceeds IC50 recorded for CN1CCC(n2cc(Nc3c(C(=O)C(C)(C)C)cnc4ccc(-c5cc(Cl)c(O)c(Cl)c5)cc34)cn2)CC1 [Example 931, hydrochloride] .
0 (no)

Dear reviewer, please state whether "O=C(c1cnc2ccc(-c3cc(F)c(O)c(Cl)c3)cc2c1N[C@H]1CC[C@H](CNCCF)CC1)C1CC1" has IC50 strictly beneath 0.5 µM.
1 (yes)

Lab log: compare recorded IC50 with 0.5 µM; is it strictly lower for "COc1cc(-c2ccc3ncc(C(=O)C4CC4)c(Nc4ccc(N5CCC[C@H](N)C5)nc4)c3c2)cc(Cl)c1O" ?
1 (yes)

API: query returns whether the molecule falls strictly under 0.5 µM in IC50. Query: COc1cc(-c2ccc3ncc([S+](C)[O-])c(N[C@H]4CC[C@H](N)CC4)c3c2)cc(Cl)c1O (some centres unmarked)
0 (no)

Strictly below 0.5 µM: is that where IC50 of "CN(C)Cc1ccc(Nc2c(C(=O)C3CC3)cnc3c(F)cc(-c4cc(F)c(O)c(Cl)c4)cc23)cc1" sits?
0 (no)

Is IC50 strictly under 0.5 µM for the entry "CC(C)(N)c1ccc(Nc2c(C(=O)C3CC3)cnc3ccc(-c4cc(F)c(O)c(Cl)c4)cc23)cc1" ?
1 (yes)

Quick check: IC50 of "CN1CCN(Cc2cccc(-c3c(C(=O)C4CC4)cnc4ccc(-c5cc(Cl)c(O)c(Cl)c5)cc34)c2)CC1" under 0.5 µM?
0 (no)
